Listing of entries alongside the reported growth AUC.
- Test system: Bacteroides clarus
- Method notes: growth AUC relative to DMSO control (median of replicates) (fraction); higher = more growth (less inhibition), active = hit call of the paper
- Run parameters: 20 µM; 24 h
Answer with a number only.

CC(C)([CH2][Sn]([CH2]C(C)(C)c1ccccc1)([CH2]C(C)(C)c1ccccc1)[O][Sn]([CH2]C(C)(C)c1ccccc1)([CH2]C(C)(C)c1ccccc1)[CH2]C(C)(C)c1ccccc1)c1ccccc1 | 1.01
Cc1cc(CC(C)CC(C)(C)C)n(O)c(=O)c1.NCCO (stereo unspecified) | 0.982
CCOC(=O)Cn1c(=O)sc2cccc(Cl)c21 | 0.979
Cc1ccc(C(C)NC(=O)[C@@H](NC(=O)OC(C)C)C(C)C)cc1 (stereo partly specified) | 1.03
CCCCC(CC)COC(=O)COc1ccc(Cl)cc1C (stereo unspecified) | 0.997

Read the next record carefully.
Report growth AUC, nothing else, for this compound: `Cc1ccc(Cl)cc1`
1.03

* * *

- Tested on: Bacteroides thetaiotaomicron
- Method notes: growth AUC relative to DMSO control (median of replicates) (fraction); higher = more growth (less inhibition), active = hit call of the paper;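 active = AUC reduced over 20% with Padj below 0.05 in at least 2 of 3 replicates; inactive = otherwise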
- Run parameters: 20 µM; 24 h
Log the outcome using a class from 1 (yes) (active), 0 (no) (inactive)

COC(=O)c1c(Cl)c(Cl)c(C(=O)OC)c(Cl)c1Cl | 0 (no)
N[C@@H](Cc1cc(I)c(Oc2cc(I)c(O)c(I)c2)c(I)c1)C(=O)O | 0 (no)
COC(=O)c1cccc(C)c1S(=O)(=O)NC(=O)Nc1nc(OCC(F)(F)F)nc(N(C)C)n1 | 0 (no)
Cc1[nH]oc(=O)c1N=Nc1ccccc1Cl | 0 (no)
CN(C)C(=O)Nc1ccc(Cl)c(Cl)c1 | 0 (no)
COc1cc(OC)nc(NC(=O)NS(=O)(=O)c2c(-c3nnn(C)n3)cnn2C)n1 | 0 (no)

Shifting focus to the compound that follows.
Can you look up the reported call for CCCCCC(C)OC(=O)COc1ccc(Cl)c2cccnc12 (stereo unspecified) for me?
0 (no)

* * *

Quick reference for growth AUC among some molecules
- Tested on: Parabacteroides merdae
- Method notes: growth AUC relative to DMSO control (median of replicates) (fraction); higher = more growth (less inhibition), active = hit call of the paper
- Run parameters: 20 µM; 24 h

// Input: `Cc1cc(C)cc(O)c1` . Output its growth AUC only.
0.988 (inactive)

Return the recorded growth AUC value; entry: CCC(C)Nc1nc(N)nc(Cl)n1 (configuration not stated)
1.03 (inactive)

Give the value of growth AUC reported for the following: COCC(=O)N(c1c(C)cccc1C(=O)O)C(C)C(=O)O (configuration not stated)
0.989 (inactive)

* * *

- System: Bacteroides thetaiotaomicron
- Method notes: growth AUC relative to DMSO control (median of replicates) (fraction); higher = more growth (less inhibition), active = hit call of the paper
- Run parameters: 20 µM; 24 h
Please enter T where growth AUC is greater than or equal to 1, and F where it is lower.

O=S(=O)(Cc1ccc(Cl)cc1)c1ccc(Cl)cc1 | F
C=CCc1ccc(OC)c(OC)c1 | T
COC(=O)C(C)Oc1ccc(Oc2ccc(C(F)(F)F)cn2)cc1 (configuration not stated) | F
Cc1nc(C(F)(F)F)c(C(=O)Nc2c(Br)cc(OC(F)(F)F)cc2Br)s1 | F
CCOC(=O)C1=NN(c2ccc(Cl)cc2Cl)C(C)(C(=O)OCC)C1 (configuration not stated) | F
CC(C)N(C(=O)CS(=O)(=O)[O-])c1ccc(F)cc1.[Na+] | F
Nc1cccc(O)c1 | T
Cc1nn(C)c(F)c1C(=O)Nc1ccccc1C(C)CC(C)C (configuration not stated) | F

hey, is growth AUC for this one >= 1? CC(C)C(O)(c1ccc(OC(F)(F)F)cc1)c1cncnc1 (configuration not stated)
F

Could you please find out whether `c1ccc(CNc2ncnc3nc[nH]c23)cc1` has growth AUC that meets 1 or exceeds it?
T

Decide: is the reported value of growth AUC for `NC(=S)Nc1cccc2ccccc12` equal to or greater than 1?
F

Can `CCCN(CCOc1c(Cl)cc(Cl)cc1Cl)C(=O)NC=O` be said to have growth AUC at or above 1?
F

Is growth AUC for `COc1ccccc1C(=O)NS(=O)(=O)c1ccc(C(=O)NC2CC2)cc1` at or above 1?
F

Does the reported growth AUC for `Cc1nn(C)c(OCC(=O)c2ccccc2)c1C(=O)c1ccc(Cl)cc1Cl` fall at or above the 1 mark?
F

Tell me whether growth AUC is at least 1 here: `CC(C)N(C(=O)CS(=O)(=O)[O-])c1ccccc1.[Na+]`
F

Recorded values, source the supplement of paper PMC12669032.
